molecular target: hTRF1 (DNA-binding domain) (Homo sapiens, UniProt P54274 P54274:371-439); assay: SPR; pH 6.8, 180 mM KCl, 293 K; details: label: biotin (13mer on SA chip)
Sequence (P54274 371-439, one chain of several): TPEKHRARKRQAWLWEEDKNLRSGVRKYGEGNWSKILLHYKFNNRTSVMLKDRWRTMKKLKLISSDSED
Exercise: for every item that follows, state its recorded pKd.
FYI, pKd means -log10 of a concentration in mol per litre.

Problem: Param item = T9G (dsDNA) DNA 1: GTTAGGGTGAGGG DNA 2: CCCTCACCCTAAC ; retrieve measured pKd.
Solution: 5.50

Problem: Param item = G7C (dsDNA) DNA 1: GTTAGGCTTAGGG DNA 2: CCCTAAGCCTAAC ; retrieve measured pKd.
Solution: 4.91

Problem: Param item = T3G (dsDNA) DNA 1: GTGAGGGTTAGGG DNA 2: CCCTAACCCTCAC ; retrieve measured pKd.
Solution: 6.10
